# System: enterococci
# experiment: Minimum inhibitory concentration, microdilution broth method, enterococci
# Assay type: cell-based
# test-settings: Enterococcus faecalis, E. faecalis GC 2242; Mueller-Hinton broth, 18-22 hours at 35° C.; read-out: MIC E. faecalis GC 2242
observed-property: MIC (µg/mL)
The answer is to be given in µg/mL; state only the numeric part.

QUERY: Recall and state the measured MIC for O=C1O/C(=C\c2ccc(-c3ccccc3)cc2)C(O)=C1c1ccc(Cl)c(Cl)c1 .
RESULT: 0.5

QUERY: Recall and state the measured MIC for O=C1O/C(=C\c2ccccc2-c2cccc(Cl)c2)C(O)=C1c1cccc(Cl)c1 .
RESULT: 4

QUERY: Recall and state the measured MIC for O=C1O/C(=C\c2ccc3ccccc3c2)C(O)=C1c1cccc(C(F)(F)F)c1 .
RESULT: 4

====

# Test system: C. elegans
# experiment: Efficacy against nematodes (C. elegans motility rating)
# Set-up: key: 0: no effect; 7: reduced movement in 24 h; 8: dead in 24 h; 9: dead in 4 h
# test-settings: dose 100 ppm, observations at 4 h and 24 h postimmersion
observed-property: Rating
Keep the answer to the number alone.

QUERY: Recall and state the measured Rating for O=C1OC(=Cc2ccc(F)cc2)C(O)=C1c1cccc(C(F)(F)F)c1 (mixture of isomers) [R=H; R1=3-CF3—C6H4**; R2=4-F—C6H4] .
RESULT: 9

QUERY: Recall and state the measured Rating for O=C1OC(=Cc2ccc(OC(F)(F)F)cc2)C(O)=C1c1ccc(OC(F)(F)F)cc1 (mixture of isomers) [R=H; R1=4-OCF3—C6H4**; R2=4-OCF3—C6H4] .
RESULT: 9

QUERY: Recall and state the measured Rating for O=C1OC(=Cc2ccccn2)C(O)=C1c1ccc(OC(F)(F)F)cc1 (mixture of isomers) [R=H; R1=4-OCF3—C6H4**; R2=pyridine-2-yl] .
RESULT: 0

QUERY: Recall and state the measured Rating for Cc1cc(C=C2OC(=O)C(c3ccc(OC(F)(F)F)cc3)=C2O)n(C)n1 (mixture of isomers) .
RESULT: 0

QUERY: Recall and state the measured Rating for O=C1OC(=Cc2cc(F)cc(C(F)(F)F)c2)C(O)=C1c1ccc(OC(F)(F)F)cc1 (mixture of isomers) [R=H; R1=4-OCF3—C6H4**; R2=3-F-5-CF3—C6H3] .
RESULT: 9

QUERY: Recall and state the measured Rating for N#Cc1ccc(C2=C(O)C(=Cc3ccc(OC(F)(F)F)cc3)OC2=O)cc1 (mixture of isomers) [R=H; R1=4-CN—C6H4**; R2=4-OCF3—C6H4] .
RESULT: 9

QUERY: Recall and state the measured Rating for N#Cc1ccc(-c2ccc(C=C3OC(=O)C(c4cccc(Cl)c4)=C3O)cc2)cc1 (mixture of isomers) .
RESULT: 9

QUERY: Recall and state the measured Rating for O=C1O/C(=C\c2ccc(OC(F)(F)F)cc2)C(O)=C1c1ccc(Cl)s1 .
RESULT: 9

QUERY: Recall and state the measured Rating for O=C1OC(=Cc2cc(C(F)(F)F)ccc2F)C(O)=C1c1ccc(OC(F)(F)F)cc1 (mixture of isomers) [R=H; R1=4-OCF3—C6H4**; R2=2-F-5-CF3—C6H3] .
RESULT: 9

QUERY: Recall and state the measured Rating for Cc1nn(C)c(Cl)c1C=C1OC(=O)C(c2ccc(OC(F)(F)F)cc2)=C1O (mixture of isomers) .
RESULT: 0

QUERY: Recall and state the measured Rating for O=C1OC(=Cc2ccc(Cl)cc2)C(O)=C1c1ccc(F)cc1 (mixture of isomers) [R=H; R1=4-F—C6H4**; R2=4-Cl—C6H4] .
RESULT: 9

QUERY: Recall and state the measured Rating for O=C1OC(=Cc2ccc(Cl)c(Cl)c2)C(O)=C1c1ccc(Cl)s1 .
RESULT: 9

QUERY: Recall and state the measured Rating for O=C1OC(=Cc2ccc(C(F)(F)F)cc2F)C(O)=C1c1ccc(OC(F)(F)F)cc1 (mixture of isomers) [R=H; R1=4-OCF3—C6H4**; R2=2-F-4-CF3—C6H3] .
RESULT: 9

====

# measurement-target: S. aureus Uridine-diphosphate-N-acetvimuramoyl: L-alanine lipase, MurC (Staphylococcus aureus, UniProt Q2FXJ0)
# Sequence (Q2FXJ0 whole entry): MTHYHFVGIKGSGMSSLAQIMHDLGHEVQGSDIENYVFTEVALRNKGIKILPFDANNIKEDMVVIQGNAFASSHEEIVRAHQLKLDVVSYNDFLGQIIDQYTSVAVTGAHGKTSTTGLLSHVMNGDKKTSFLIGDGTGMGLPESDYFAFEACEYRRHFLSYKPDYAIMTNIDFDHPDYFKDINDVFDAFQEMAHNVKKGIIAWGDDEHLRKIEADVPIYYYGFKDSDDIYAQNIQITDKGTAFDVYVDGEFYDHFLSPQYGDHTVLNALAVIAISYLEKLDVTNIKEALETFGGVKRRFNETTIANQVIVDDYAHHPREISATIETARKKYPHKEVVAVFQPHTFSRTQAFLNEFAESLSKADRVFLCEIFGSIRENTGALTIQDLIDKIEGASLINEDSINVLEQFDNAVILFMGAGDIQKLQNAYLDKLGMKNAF
# experiment: biochemical
# test-settings: (S) S. aureus enzyme
I'd be grateful if you could share measured MurC IC50 for these entries.
The answer is to be given in µg/mL; state only the numeric part.

QUERY: Recall and state the measured MurC IC50 for Cc1ccc(C=C2OC(=O)C(c3ccc(Cl)cc3)=C2O)s1 [Example 14] .
RESULT: 22

QUERY: Recall and state the measured MurC IC50 for CCOC(=O)c1cccc(C2=C(O)C(=Cc3cccc4ccccc34)OC2=O)c1 [Example 75] .
RESULT: 20

====

# Test system: enterococci
# experiment: Minimum inhibitory concentration, microdilution broth method, enterococci
# Assay type: cell-based
# test-settings: Enterococcus faecalis, E. faecalis GC 4555; Mueller-Hinton broth, 18-22 hours at 35° C.; read-out: MIC E. faecalis GC 4555
I'd be grateful if you could share measured log10 MIC for these entries.
The base-10 logarithm of MIC, taken with MIC in µg/mL, is what appears here.

QUERY: Recall and state the measured log10 MIC for O=C1O/C(=C\c2ccc(-c3ccccc3)cc2)C(O)=C1c1cccc2ccccc12 .
RESULT: 1.51

QUERY: Recall and state the measured log10 MIC for O=C1O/C(=C\c2cccc(C(F)(F)F)c2Cl)C(O)=C1c1ccc(-c2ccccc2)cc1 .
RESULT: 0.60

QUERY: Recall and state the measured log10 MIC for O=C1O/C(=C\c2cccc3ccccc23)C(O)=C1c1ccc(Cl)cc1 .
RESULT: 1.51

QUERY: Recall and state the measured log10 MIC for O=C1O/C(=C\c2ccc3ccccc3c2)C(O)=C1c1cccc2ccccc12 .
RESULT: 1.51

QUERY: Recall and state the measured log10 MIC for COc1cc(/C=C2\OC(=O)C(c3cccc(Cl)c3)=C2O)ccc1-c1ccccc1Cl .
RESULT: 1.20

QUERY: Recall and state the measured log10 MIC for O=C1O/C(=C\c2ccc3ccccc3c2)C(O)=C1c1ccc(-c2ccccc2)cc1 .
RESULT: 1.81

QUERY: Recall and state the measured log10 MIC for O=C1O/C(=C\c2ccccc2C(F)(F)F)C(O)=C1c1ccc(-c2ccccc2)c(F)c1 .
RESULT: 0.90

QUERY: Recall and state the measured log10 MIC for Cc1cc(/C=C2\OC(=O)C(c3cccc(Cl)c3)=C2O)ccc1-c1ccccc1Cl .
RESULT: 0.60

QUERY: Recall and state the measured log10 MIC for COc1ccccc1-c1ccc(/C=C2\OC(=O)C(c3cc(Cl)cc(Cl)c3)=C2O)cc1C .
RESULT: 0.60

QUERY: Recall and state the measured log10 MIC for CN(C)c1ccc(/C=C2\OC(=O)C(c3cc(Cl)cc(Cl)c3)=C2O)c2ccccc12 .
RESULT: 0.90

QUERY: Recall and state the measured log10 MIC for O=C1O/C(=C\c2cccc(-c3ccc(Cl)c(Cl)c3)c2)C(O)=C1c1ccc(Cl)c(Cl)c1 .
RESULT: 0.60

QUERY: Recall and state the measured log10 MIC for Cc1ccccc1C1=C(O)/C(=C/c2ccc(-c3ccccc3C)cc2)OC1=O .
RESULT: 1.51

QUERY: Recall and state the measured log10 MIC for O=C1O/C(=C\c2cc(F)cc(C(F)(F)F)c2)C(O)=C1c1ccc(-c2ccccc2)c(F)c1 .
RESULT: 0.60

QUERY: Recall and state the measured log10 MIC for COc1ccccc1-c1ccc(/C=C2\OC(=O)C(c3cc(Cl)cc(Cl)c3)=C2O)cc1OC .
RESULT: 0.90

QUERY: Recall and state the measured log10 MIC for COc1cc(/C=C2\OC(=O)C(c3cccc(Cl)c3)=C2O)ccc1-c1ccccc1C(F)(F)F .
RESULT: 0.90

QUERY: Recall and state the measured log10 MIC for O=C1O/C(=C\c2cccc(-c3cc(Cl)cc(Cl)c3)c2)C(O)=C1c1cc(Cl)cc(Cl)c1 .
RESULT: 0.00

QUERY: Recall and state the measured log10 MIC for O=C1O/C(=C\c2ccc(Cl)cc2)C(O)=C1c1cccc2ccccc12 .
RESULT: 1.51

====

# measurement-target: S. aureus Enopyruvyl-UPD-N-acetylglucosamine reductase, Mur B (Staphylococcus aureus, UniProt P61431)
# Sequence (P61431 1-307): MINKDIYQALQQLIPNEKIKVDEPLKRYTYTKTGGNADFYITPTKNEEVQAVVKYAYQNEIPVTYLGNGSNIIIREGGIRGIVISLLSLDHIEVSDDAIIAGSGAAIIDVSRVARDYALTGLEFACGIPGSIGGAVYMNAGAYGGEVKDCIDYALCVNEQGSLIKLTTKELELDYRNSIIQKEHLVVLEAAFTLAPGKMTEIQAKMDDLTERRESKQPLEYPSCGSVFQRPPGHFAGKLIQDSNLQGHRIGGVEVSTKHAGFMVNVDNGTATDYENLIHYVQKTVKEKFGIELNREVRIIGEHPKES
# experiment: biochemical
# test-settings: (S) S. aureus enzyme
I'd be grateful if you could share measured MurB IC50 for these entries.

QUERY: Recall and state the measured MurB IC50 for O=C1O/C(=C\c2ccc(N3CCOCC3)c(F)c2)C(O)=C1c1cc(Cl)cc(Cl)c1 .
RESULT: 6 (S) μg/mL

QUERY: Recall and state the measured MurB IC50 for O=C1O/C(=C\c2cc(C(F)(F)F)ccc2Cl)C(O)=C1c1ccc(N2CCOCC2)c(F)c1 .
RESULT: 21 µg/mL

QUERY: Recall and state the measured MurB IC50 for CN(C)c1ccc(C=C2OC(=O)C(c3cc(Cl)cc(Cl)c3)=C2O)c2ccccc12 .
RESULT: 1 µg/mL

QUERY: Recall and state the measured MurB IC50 for O=C1OC(=Cc2cccc3ccccc23)C(O)=C1c1ccc(C=NO)cc1 (mixture of isomers) .
RESULT: 12 µg/mL

QUERY: Recall and state the measured MurB IC50 for Cc1cc(/C=C2\OC(=O)C(c3cc(Cl)cc(Cl)c3)=C2O)ccc1-c1ccccc1OS(C)(=O)=O .
RESULT: 4 µg/mL

QUERY: Recall and state the measured MurB IC50 for O=C1O/C(=C\c2cccc3ccccc23)C(O)=C1c1cccc(C=NO)c1 .
RESULT: 10 µg/mL

QUERY: Recall and state the measured MurB IC50 for COc1ccc(C=C2OC(=O)C(c3cccc(Cl)c3)=C2O)c2ccccc12 .
RESULT: 6 (S) μg/mL

QUERY: Recall and state the measured MurB IC50 for Cc1cc(C=C2OC(=O)C(c3cc(Cl)cc(Cl)c3)=C2O)ccc1-c1ccccc1Cl .
RESULT: 2 (E); 2 (S) μg/mL

QUERY: Recall and state the measured MurB IC50 for CCOC(=O)c1cccc(C2=C(O)C(=Cc3cccc4ccccc34)OC2=O)c1 .
RESULT: 24 µg/mL
